B1: PhoQ; a variant is named by its letters at X, in order, P23837 (parent)
chain: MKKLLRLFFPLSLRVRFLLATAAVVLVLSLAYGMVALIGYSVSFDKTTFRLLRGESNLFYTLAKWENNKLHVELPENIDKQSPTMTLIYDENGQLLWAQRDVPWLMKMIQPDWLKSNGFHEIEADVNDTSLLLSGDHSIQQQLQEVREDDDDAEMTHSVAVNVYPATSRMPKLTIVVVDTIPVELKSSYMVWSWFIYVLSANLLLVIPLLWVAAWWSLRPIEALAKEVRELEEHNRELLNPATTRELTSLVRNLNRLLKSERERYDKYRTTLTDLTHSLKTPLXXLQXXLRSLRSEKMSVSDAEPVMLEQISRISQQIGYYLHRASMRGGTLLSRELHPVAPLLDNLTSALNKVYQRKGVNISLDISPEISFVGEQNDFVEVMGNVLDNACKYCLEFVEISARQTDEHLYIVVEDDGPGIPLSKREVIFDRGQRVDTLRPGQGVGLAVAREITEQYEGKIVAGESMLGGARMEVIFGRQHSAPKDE

- Variants of: B1
- protocol notes: enrichment ratio after two sorts for PhoP signalling (ratio (wild type AVST 3.29)); higher = more functional
- experimental context: with PhoP (E. coli)
In all, about 140,000 sequences were measured (“enrichment ratio after two sorts for PhoP signalling”: median about 0, highest 2% from about 11 on). Shown is part of a subset that was picked to be rich in the highest values.
recorded endpoint: enrichment ratio

- mutation name: "GSLT"
  recorded endpoint: "enrichment ratio"
  result: 9.31

For each listed entry, give its enrichment ratio.
1. FVVT
2. RITC
3. MWTK
4. GSLS

Result string:
["≤ 0.25", "≤ 0.25", "≤ 0.25", 11.8]

Fill in enrichment ratio for each of the 4 variants listed.
1. KQPC
2. DMYA
3. GSDN
4. GSLI

Result string:
["≤ 0.25", "≤ 0.25", "≤ 0.25", 15.5]

Give me enrichment ratio for each of these variants, listed below.
1. SVVF
2. PHTQ

Result string:
1. ≤ 0.25
2. ≤ 0.25
